ASSAY_TEXT: S. cerevisiae growth modulation with rapamycin, primary screen, strain BY4716, OD600, 96 h (AID 1091); note: test concentration not given here
TEST_CONDITIONS: higher = more signal, called active from +8 up or from −8 down
MEASURED_METRIC: z-score

O=C1C=C(c2ccccc2)C(=O)c2ccc([C@H]3Oc4ccccc4S(=O)(=O)N4CCC[C@@H]34)cc21 = 0.696
COc1cc2c(cc1OC)CN(C(=O)[C@@H]1[C@H]3C(=O)O[C@H](c4ccccc4)[C@H](c4ccccc4)N3[C@H](c3ccc(OCCO)cc3)[C@@]13C(=O)Nc1ccccc13)CC2 = 5.44
O=C1NC(=O)C2C1C=CC(C(O)c1cccc3ccccc13)N2Nc1ccc(Cl)cc1Cl (configuration not stated) = 2.56
COC(=O)c1nc2oc1CC[C@@H](CO)NC(=O)N(C)Cc1cnnn1C[C@H](Cc1ccccc1)NC2=O = -0.335
C=C(/C(=C/C[C@H](OC(=O)c1ccncc1)c1ccc(CO)o1)c1cc(C(=O)OC)ccc1OC)C(C)C = -0.38
COCCOC(=O)N1C(=O)[C@@]2(c3cc(C#CCCO)ccc31)[C@H](C(=O)Nc1nc3ccccc3s1)[C@H]1C(=O)O[C@H](c3ccccc3)[C@H](c3ccccc3)N1[C@@H]2c1ccccc1OCCO = 3.64
C#CCN([C@@H](Cc1ccc(O)cc1)C(=O)OC)[C@@H](/C=C/C1CC1)[C@H](O)Cc1ccccc1 = 0.417

###

Quick list: z-score per entry.
ASSAY_TEXT: yeast growth modulation, basal conditions, primary screen, YJM789 clinical isolate, OD600, 24 h (AID 1089);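 note: growth of clinical yeast isolate S. cerevisiae YJM 789 seeded 1000 cells per well; test concentration not given here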
TEST_CONDITIONS: S. cerevisiae YJM789 growth, higher = more signal, called active from +8 up or from −8 down
MEASURED_METRIC: z-score

NC(N)=NCCCn1cc(CNC(=O)[C@@H](N)Cc2ccccc2)nn1 = 0.567
COCCOC(=O)N1C(=O)[C@@]2(c3ccccc31)[C@H](C(=O)N1CCN(c3ncccn3)CC1)[C@H]1C(=O)O[C@H](c3ccccc3)[C@H](c3ccccc3)N1[C@@H]2c1ccc(O)cc1 = 0.232
CCCC[C@@H]1C[C@H]1[C@@H](NC(=O)Cc1ccccc1)c1ccc(-c2ccccc2)cc1 = 0.341
C=C(COC)/C(=C/C[C@H](OC(=O)c1ccncc1)c1ccccc1OCCO)c1cnc2ccccc2c1 = -1.77
C=CCC(OC(C)=O)[C@@H]1[C@@H](N(Cc2cc3ccccc3o2)C(=O)c2ccc(-c3ccccc3)cc2)c2cc(OCCCO)ccc2N1C(=O)c1ccc2ccccc2c1 (stereo not given in full) = 0.271

###

SUBJECT_OF_TEST: Left-right determination factor 2 (Homo sapiens) (UniProt O00292)
Sequence (O00292 whole entry, looked up): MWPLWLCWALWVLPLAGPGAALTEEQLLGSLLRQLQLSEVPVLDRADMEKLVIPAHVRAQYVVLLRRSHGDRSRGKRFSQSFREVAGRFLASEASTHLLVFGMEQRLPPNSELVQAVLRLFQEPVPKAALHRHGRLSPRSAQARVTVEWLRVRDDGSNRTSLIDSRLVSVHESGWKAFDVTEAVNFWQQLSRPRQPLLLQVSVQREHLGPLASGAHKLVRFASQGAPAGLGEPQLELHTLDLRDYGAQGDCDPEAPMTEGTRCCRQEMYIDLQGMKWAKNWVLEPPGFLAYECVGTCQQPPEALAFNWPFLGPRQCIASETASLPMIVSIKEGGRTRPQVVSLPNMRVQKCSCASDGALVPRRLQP
ASSAY_TEXT: LEFTY2 binders on small-molecule microarrays, primary screen, biochemical, small-molecule microarray, 635 nm fluorescence scan (AID 1110)
TEST_CONDITIONS: LEFTY2 binding, higher = more signal
composite z-score overview
MEASURED_METRIC: composite z-score

COC(=O)[C@@]1(Cc2ccccc2)[C@H]2c3cc(C(=O)N(C)C)n(Cc4c(CO)[nH]cc(C)c4=O)c3C[C@H]2CN1C(=O)c1ccccc1 = -0.0086
NC(=O)NCC#Cc1ccc2c(c1)[C@]1(C(=O)N2)[C@H](C(=O)O)[C@H]2C(=O)O[C@H](c3ccccc3)[C@H](c3ccccc3)N2[C@@H]1c1ccc(OCCO)cc1 = -0.288
CCCCCCCCCCC(O)C1C=CC2C(=O)N(C)C(=O)C2N1Nc1ccc([N+](=O)[O-])cc1[N+](=O)[O-] (stereo not drawn) = -0.323
